target: UniProtKB Q06187; assay: Inhibition of BTK (unknown origin) at 0.1 uM in the presence of ATP by caliper mobility shift assay relative to control
Sequence (Q06187 whole entry): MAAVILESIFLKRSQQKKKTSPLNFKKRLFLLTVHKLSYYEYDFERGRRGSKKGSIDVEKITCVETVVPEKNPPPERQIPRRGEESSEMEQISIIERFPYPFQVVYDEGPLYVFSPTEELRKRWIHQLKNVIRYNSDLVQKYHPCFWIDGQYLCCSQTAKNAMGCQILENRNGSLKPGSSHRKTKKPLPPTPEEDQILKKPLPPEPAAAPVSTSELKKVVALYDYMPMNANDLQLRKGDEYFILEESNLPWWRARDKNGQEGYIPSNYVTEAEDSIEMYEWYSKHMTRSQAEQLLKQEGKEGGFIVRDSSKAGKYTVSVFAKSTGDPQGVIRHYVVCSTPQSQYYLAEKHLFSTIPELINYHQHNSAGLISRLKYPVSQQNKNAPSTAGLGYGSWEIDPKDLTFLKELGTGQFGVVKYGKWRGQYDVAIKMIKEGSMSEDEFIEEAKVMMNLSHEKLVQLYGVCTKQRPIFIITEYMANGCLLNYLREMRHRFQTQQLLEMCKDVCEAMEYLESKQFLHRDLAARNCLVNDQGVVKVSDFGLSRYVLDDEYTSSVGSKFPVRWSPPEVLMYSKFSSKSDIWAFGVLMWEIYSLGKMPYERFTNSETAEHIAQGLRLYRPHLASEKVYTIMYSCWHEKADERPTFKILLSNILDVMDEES
Rule: inhibition under 10% gives condition not met, otherwise condition met.

Recorded results for 2 compounds are shown here.
                                   compound        label_value
0  Nc1ncnc2c1c(-c1cc3ccccc3o1)cn2[C@H]1CCN(C[C@H]2CO2)C1      condition met
1  Nc1ncnc2c1c(-c1ccc3c(c1)OCO3)cn2C1CCN(C2COC2)CC1  condition not met

Form field: inhibition at least 10%? Entry: `Nc1ncnc2c1c(-c1ccc(Oc3ccccc3)cc1)cn2C[C@H]1CCCN1C[C@@H](O)CO`
condition met

Given `Nc1ncnc2c1c(-c1ccc3c(c1)OCO3)cn2[C@H]1CCN(CCCO)C1` , state whether its inhibition is at least 10%.
condition not met

Could you tell me if the measured inhibition of CCOC(=O)C(C)N1CC[C@H](n2cc(-c3ccc4c(c3)OCO4)c3c(N)ncnc32)C1 (some centres not stated) reaches 10% or more?
condition not met

hey, is inhibition for this one >= 10%? `Nc1ncnc2c1c(-c1ccc(C(=O)Nc3ccc(Oc4ccccc4)cc3)cc1)cn2[C@H]1CCN(C[C@@H]2CO2)C1`
condition not met

Is the recorded value of inhibition equal to or greater than 10% for this compound? `Nc1ncnc2c1c(-c1ccc(Oc3ccccc3)cc1)cn2[C@H]1CCN(C[C@@H]2CO2)C1`
condition met

###

target: Tyrosine-protein kinase ITK/TSK (Homo sapiens); experiment: Inhibition of human recombinant ITK using Ulight-TK peptide as substrate measured after 30 mins in the presence of ATP by LANCE method
Sequence (Q08881 whole entry): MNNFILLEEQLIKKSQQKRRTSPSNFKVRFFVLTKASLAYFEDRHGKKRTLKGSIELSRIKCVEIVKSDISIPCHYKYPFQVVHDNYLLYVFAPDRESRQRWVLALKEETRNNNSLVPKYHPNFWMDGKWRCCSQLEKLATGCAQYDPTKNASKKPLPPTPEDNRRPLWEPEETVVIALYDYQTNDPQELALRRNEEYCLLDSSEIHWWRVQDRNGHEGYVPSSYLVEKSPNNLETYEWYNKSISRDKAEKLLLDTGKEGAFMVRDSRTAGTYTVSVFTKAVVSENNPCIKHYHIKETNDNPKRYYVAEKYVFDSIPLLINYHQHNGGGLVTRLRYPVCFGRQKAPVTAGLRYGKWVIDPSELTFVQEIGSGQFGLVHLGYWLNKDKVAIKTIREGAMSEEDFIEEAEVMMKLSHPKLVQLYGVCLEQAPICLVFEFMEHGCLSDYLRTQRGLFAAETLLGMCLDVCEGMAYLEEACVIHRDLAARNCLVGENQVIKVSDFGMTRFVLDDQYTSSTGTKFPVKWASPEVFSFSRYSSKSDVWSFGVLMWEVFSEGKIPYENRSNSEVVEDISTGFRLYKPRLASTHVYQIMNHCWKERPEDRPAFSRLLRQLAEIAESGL
Observable: IC50

Complete the entry with IC50 for `Nc1ncnc2c1c(-c1ccc(Oc3ccccc3)cc1)cn2C[C@H]1CCCN1C[C@@H]1CO1`
> 1 µM

###

Measured inhibition by item
molecular target: UniProt:Q06187; assay: Inhibition of BTK (unknown origin) at 1 uM in the presence of ATP by caliper mobility shift assay relative to control
// note: answer is a bare numeric in %

Some solved entries appear below for comparison.
>>> print(df.to_string())
                                     smiles  observable  meas_value
0  Nc1ncnc2c1c(-c1ccc3c(c1)OCO3)cn2[C@H]1CCN(CC2CC2)C1  inhibition        15.2
1  Nc1ncnc2c1c(-c1ccc3c(c1)OCO3)cn2C1=CCN(C[C@@H]2CO2)CC1  inhibition        42.6
2  N#CCCN1CC[C@H](n2cc(-c3ccc4c(c3)OCO4)c3c(N)ncnc32)C1  inhibition        67.8
3  Nc1ncnc2c1c(-c1ccc3c(c1)OCO3)cn2[C@H]1CCN(C[C@@H]2CO2)C1  inhibition        93.5
4  Nc1ncnc2c1c(-c1ccc3c(c1)OCO3)cn2[C@H]1CCN(C2COC2)C1  inhibition          52
5  Nc1ncnc2c1c(-c1cccc(-n3ncc4ccccc4c3=O)c1)cn2[C@H]1CCN(C[C@@H]2CO2)C1  inhibition        17.5
6  CC(C)(C)c1ccc(Oc2ccc(-c3cn([C@H]4CCN(C[C@@H]5CO5)C4)c4ncnc(N)c34)cc2)cc1  inhibition        19.1
7  CN(C)CC(=O)N1CC[C@H](n2cc(-c3ccc4c(c3)OCO4)c3c(N)ncnc32)C1  inhibition        23.7

Please report the measured inhibition for `COC(CN1CC[C@H](n2cc(-c3ccc4c(c3)OCO4)c3c(N)ncnc32)C1)OC`
37.1
